Tested on: Fibroblast
experiment.summary: Multiplex assay against human fibroblast
Type: toxicity, cell-based
assay.context: 12 h, 10 µM, compound concentration 10 uM, replicate 1
measurement.kind: Population Mitochondria Different-Phenotype (%)
Dear colleague, please return just the value in %, with no unit written.

// known answers, use as guide
compound: COC[C@@H](c1ccc(C(F)(F)F)cc1)N1CCN(C2(C)CCN(C(=O)c3c(C)ncnc3C)CC2)C[C@@H]1C.O=C(O)/C=C\C(=O)O [VICRIVIROC MALEATE]
unit.string: %
observed: 4
//
compound: Cc1cccc(NC(=O)CN2CCC(c3ccccn3)CC2)c1.Cl.Cl
unit.string: %
observed: 7
//
compound: NCCc1cn(S(=O)(=O)c2c(Cl)nc3sccn23)c2ccccc12.O=C(O)C(=O)O
unit.string: %
observed: 40

Please turn your attention to the following entry.
query: Query: Population Mitochondria Different-Phenotype (%); subject: Cc1c(CC(=O)O)c2cccnc2n1Cc1ccc(S(C)(=O)=O)cc1C(F)(F)F
result: 4

* * *

Test system: U2OS
experiment.summary: Multiplex assay against U2OS
Assay type: toxicity, cell-based
assay.context: human, 24 h, 1 µM, compound concentration 1 uM, replicate 1
measurement.kind: Population Mitotic Cells (%)

// known answers, use as guide
compound: CC(=O)Nc1cccc2c1c(Sc1ccc(Cl)cc1)c(C)n2CC(=O)O
observed: 8%
--
compound: CC(C)c1noc(N2CCC(COc3ccc(-c4ccc(S(C)(=O)=O)cc4)nc3)CC2)n1
observed: 36%

query: Query: Population Mitotic Cells (%); subject: CCc1cc2cc(NS(=O)(=O)c3ccc(C#N)cc3)ccc2n(CC)c1=O
result: 14%

query: Query: Population Mitotic Cells (%); subject: O=C1[C@H](Cc2ccc(O)cc2)N2C(=O)CCN(C(=O)NCc3ccccc3)[C@H]2CN1Cc1cccc2ccccc12
result: 19%

query: Query: Population Mitotic Cells (%); subject: CN(C)C(=O)Cn1cc(-c2ccc(-c3cncc4ccccc34)cc2)cn1
result: 0%

query: Query: Population Mitotic Cells (%); subject: NCCc1cn(S(=O)(=O)c2c(Cl)nc3sccn23)c2ccccc12.O=C(O)C(=O)O
result: 30%

query: Query: Population Mitotic Cells (%); subject: C[C@H](N)COC(=O)[C@@H](CCCCN)NC(=O)Cc1c(-c2ccc3ccccc3c2)[nH]c2c1ccc1ccccc12
result: 16%

query: Query: Population Mitotic Cells (%); subject: CCCOc1ccc2[nH]cc(C3=CCNCC3)c2n1.Cl
result: 29%

query: Query: Population Mitotic Cells (%); subject: CCCCCC(O)/C=C/[C@H]1C(=O)CC(O)C1C/C=C\CCCC(=O)O (stereo not given in full)
result: 13%

query: Query: Population Mitotic Cells (%); subject: N#Cc1cc(F)cc(-c2nc(-c3ccc(F)cn3)no2)c1
result: 9%

* * *

System: U2OS
experiment.summary: Multiplex assay against U2OS
Type: toxicity, cell-based
assay.context: human, 24 h, 1 µM, compound concentration 1 uM, replicate 2
Please use 1 (yes) whenever Population Tubulin-Different-Phenotype (%) is not below 4%, and 0 (no) whenever it is.

molecule: CC(C)c1noc(N2CCC(COc3ccc(-c4ccc(S(C)(=O)=O)cc4)nc3)CC2)n1 [GSK-1292263]
class: 0 (no)
//
molecule: CC(=O)Nc1cccc2c1c(Sc1ccc(Cl)cc1)c(C)n2CC(=O)O [AZD1981]
class: 0 (no)
//
molecule: Cc1onc(-c2ccccc2Cl)c1C(=O)N(C)c1ccc(Cl)cc1
class: 0 (no)
//
molecule: N#Cc1c(Oc2cccc(OS(=O)(=O)CCCC(F)(F)F)c2)cccc1C(F)(F)F
class: 1 (yes)

query: Exam item: decide whether the reported Population Tubulin-Different-Phenotype (%) for Cc1noc(-c2ccc(-c3ccc(CC(=O)O)cc3)cc2)c1NC(=O)O[C@H](C)c1ccccc1Cl is at least 4%.
result: 1 (yes)

* * *

System: HEK-293T
experiment.summary: Multiplex assay against HEK293T
Assay type: toxicity, cell-based
assay.context: human, 48 h, 1 µM, compound concentration 1 uM, replicate 2
// classify: if (Total Cell Count < 600) 1 (yes) else 0 (no)

Solved cases (5 shown):
compound: Cl.N=C(N)NC(=O)Cc1c(Cl)cccc1Cl [GUANFACINE HYDROCHLORIDE]
class: 1 (yes)

compound: CCCCC(=O)N(Cc1ccc(-c2ccccc2-c2nnn[nH]2)cc1)[C@H](C(=O)O)C(C)C
class: 0 (no)

compound: CC(=O)Nc1cccc2c1c(Sc1ccc(Cl)cc1)c(C)n2CC(=O)O
class: 1 (yes)

compound: Cc1noc(-c2ccc(-c3ccc(CC(=O)O)cc3)cc2)c1NC(=O)O[C@H](C)c1ccccc1Cl
class: 1 (yes)

compound: Cl.NCCc1ccc(O)c(O)c1 [DOPAMINE HYDROCHLORIDE]
class: 0 (no)

Then there is this compound:
query: Given the entry CC[C@@H](C)Nc1nc(C)nc2c(-c3ccc(OC)nc3C)c(C)nn12 , would its reported Total Cell Count be below 600?
result: 1 (yes)

* * *

Tested on: Fibroblast
experiment.summary: Multiplex assay against human fibroblast
Format: toxicity, cell-based
assay.context: 48 h, 10 µM, compound concentration 10 uM, replicate 2
// classify: if (Population Mitochondria Different-Phenotype (%) < 10%) Yes else No

Solved cases (4 shown):
molecule: O=C(NCCN1CCC(n2c(=O)[nH]c3cc(Cl)ccc32)CC1)c1ccc(F)cc1 [HALOPEMIDE]
target.system: Fibroblast
class: No
--
molecule: CC[C@@H](C)Nc1nc(C)nc2c(-c3ccc(OC)nc3C)c(C)nn12
target.system: Fibroblast
class: Yes
--
molecule: CCCCCC(O)/C=C/[C@H]1C(=O)CC(O)C1C/C=C\CCCC(=O)O (stereo not given in full)
target.system: Fibroblast
class: Yes
--
molecule: Cc1c(CC(=O)O)c2cccnc2n1Cc1ccc(S(C)(=O)=O)cc1C(F)(F)F
target.system: Fibroblast
class: Yes

Then there is this molecule:
query: Given the entry CC(C)c1noc(N2CCC(COc3ccc(-c4ccc(S(C)(=O)=O)cc4)nc3)CC2)n1 , would its reported Population Mitochondria Different-Phenotype (%) be below 10%?
result: No

* * *

System: U2OS
experiment.summary: Multiplex assay against U2OS
Format: toxicity, cell-based
assay.context: human, 48 h, 1 µM, compound concentration 1 uM, replicate 2
Each record's class is read off its Population Apoptotic (%) using these ranges: 1 (below 80%), 2 (80% to below 90%), 3 (90% or more)

Solved cases (8 shown):
molecule: CCCCC(=O)N(Cc1ccc(-c2ccccc2-c2nnn[nH]2)cc1)[C@H](C(=O)O)C(C)C
class: 2
//
molecule: Cc1cnc(-c2cc(N3CCN(C(=O)CCS(C)(=O)=O)CC3)ncc2Cl)c(C)c1
class: 3
//
molecule: Cc1noc(-c2ccc(-c3ccc(CC(=O)O)cc3)cc2)c1NC(=O)O[C@H](C)c1ccccc1Cl
class: 2
//
molecule: CCCCCC(O)/C=C/[C@H]1C(=O)CC(O)C1C/C=C\CCCC(=O)O (stereo partly drawn)
class: 3
//
molecule: COC[C@@H](c1ccc(C(F)(F)F)cc1)N1CCN(C2(C)CCN(C(=O)c3c(C)ncnc3C)CC2)C[C@@H]1C.O=C(O)/C=C\C(=O)O [VICRIVIROC MALEATE]
class: 3
//
molecule: CN1CCN(c2cc(-c3ccccc3)nc(N)n2)CC1
class: 1
//
molecule: COc1cccc2c1c(NS(=O)(=O)c1ccc(Cl)s1)nn2Cc1cccc(CNC(=O)C(C)(C)O)c1
class: 1
//
molecule: Cc1cccc(NC(=O)CN2CCC(c3ccccn3)CC2)c1.Cl.Cl
class: 3

query: Which bin should I file CC(C)(C)c1cc(NC(=O)Nc2ccc(-c3cn4c(n3)sc3cc(OCCN5CCOCC5)ccc34)cc2)no1 under?
result: 1

query: Which bin should I file O=C1[C@H](Cc2ccc(O)cc2)N2C(=O)CCN(C(=O)NCc3ccccc3)[C@H]2CN1Cc1cccc2ccccc12 under?
result: 3

query: Which bin should I file N#Cc1c(Oc2cccc(OS(=O)(=O)CCCC(F)(F)F)c2)cccc1C(F)(F)F under?
result: 3

query: Which bin should I file CCCOc1ccc2[nH]cc(C3=CCNCC3)c2n1.Cl under?
result: 1

query: Which bin should I file C[C@H](N)COC(=O)[C@@H](CCCCN)NC(=O)Cc1c(-c2ccc3ccccc3c2)[nH]c2c1ccc1ccccc12 under?
result: 1

query: Which bin should I file COc1ccccc1N1CCN(C[C@@H](C(=O)NC(C)(C)C)c2ccccc2)CC1.Cl.Cl under?
result: 2

query: Which bin should I file O=C(CCCc1ccccc1)Nc1nc2ccccc2c(=O)s1 under?
result: 2

query: Which bin should I file CCCCC1=NC2(CCCC2)C(=O)N1Cc1ccc(-c2ccccc2-c2nnn[nH]2)cc1 under?
result: 3

* * *

System: U2OS
experiment.summary: Multiplex assay against U2OS
Format: toxicity, cell-based
assay.context: human, 24 h, 10 µM, compound concentration 10 uM, replicate 1
measurement.kind: Population Hoechst High Intensity Objects (%)
Dear colleague, please return just the value in %, with no unit written.

compound: O=C(CCCc1ccccc1)Nc1nc2ccccc2c(=O)s1
target.system: U2OS
observed: 2

query: Query: Population Hoechst High Intensity Objects (%); subject: CCCCCC(O)/C=C/[C@H]1C(=O)CC(O)C1C/C=C\CCCC(=O)O (stereo not given in full)
result: 1
